- SYSTEM: T1, hIL-11R (Homo sapiens, UniProt Q14626)
- T1 sequence (Q14626 23-422): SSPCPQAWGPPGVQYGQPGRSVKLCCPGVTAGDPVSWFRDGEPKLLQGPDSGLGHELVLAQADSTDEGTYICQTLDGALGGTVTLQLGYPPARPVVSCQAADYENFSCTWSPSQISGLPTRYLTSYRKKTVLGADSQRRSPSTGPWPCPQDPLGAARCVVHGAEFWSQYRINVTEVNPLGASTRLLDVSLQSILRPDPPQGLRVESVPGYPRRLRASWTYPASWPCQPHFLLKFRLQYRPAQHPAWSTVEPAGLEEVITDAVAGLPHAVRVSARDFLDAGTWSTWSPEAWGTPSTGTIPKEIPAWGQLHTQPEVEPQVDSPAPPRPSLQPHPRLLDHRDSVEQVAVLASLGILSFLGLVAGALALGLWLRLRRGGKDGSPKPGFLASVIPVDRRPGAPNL
- PROTOCOL TEXT: Alternate biolayer interferometry assay (AHC biosensors) ranking mAbs 16-32 against mAb5
- Assay type: binding
- ASSAY SETUP: compared to mAb5 (comparator)
MEASURED ENDPOINT: qualitative assessment

1) mAb30: anti-IL-11Rα antibody, human IgG4 (S228P), kappa; VH SEQ ID NO: 251, VL SEQ ID NO: 252 (antibody, V domains shown, IgG4 S228P kappa constant regions; mAb30 VH Chain; mAb30 VL Chain) VH: EVQLLESGGGLVQPGGSLRLSCAASGFTFSTYSMTWVRQAPGKGLEWVSSIVPYGDLTQYADSVKGRFTISRDNSKNTLYLQMNSLRAEDTAVYYCAKGPGWGSFDLWGRGTLVTVSS VL: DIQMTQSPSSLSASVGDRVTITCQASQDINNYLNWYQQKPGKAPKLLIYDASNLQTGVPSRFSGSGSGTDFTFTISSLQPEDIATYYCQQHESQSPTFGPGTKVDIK : decreased
2) mAb25: anti-IL-11Rα antibody, human IgG4 (S228P), kappa; VH SEQ ID NO: 241, VL SEQ ID NO: 242 (antibody, V domains shown, IgG4 S228P kappa constant regions; mAb25 VH Chain; mAb25 VL Chain) VH: EVQLLESGGGLVQPGGSLRLSCAASGFTFSMYSMTWVRQAPGKGLEWVSSIVPYGDLTQYADSVKGRFTISRDNSKNTLYLQMNSLRAEDTAVYYCAKGPGWGSFDLWGRGTLVTVSS VL: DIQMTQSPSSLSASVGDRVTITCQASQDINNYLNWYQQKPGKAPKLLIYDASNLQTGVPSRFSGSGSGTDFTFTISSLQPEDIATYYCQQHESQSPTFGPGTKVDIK : similar
3) mAb19: anti-IL-11Rα antibody, human IgG4 (S228P), kappa; VH SEQ ID NO: 229, VL SEQ ID NO: 230 (antibody, V domains shown, IgG4 S228P kappa constant regions; mAb19 VH Chain; mAb19 VL Chain) VH: EVQLLESGGGLVQPGGSLRLSCAASGFTFSFYSMTWVRQAPGKGLEWVSSIVPYGDLTQYADSVKGRFTISRDNSKNTLYLQMNSLRAEDTAVYYCAKGPGWGSFDLWGRGTLVTVSS VL: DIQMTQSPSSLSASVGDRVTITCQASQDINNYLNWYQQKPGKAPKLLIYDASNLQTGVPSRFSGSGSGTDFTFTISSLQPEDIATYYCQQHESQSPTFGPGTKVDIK : similar
4) mAb18: anti-IL-11Rα antibody, human IgG4 (S228P), kappa; VH SEQ ID NO: 227, VL SEQ ID NO: 228 (antibody, V domains shown, IgG4 S228P kappa constant regions; mAb18 VH Chain; mAb18 VL Chain) VH: EVQLLESGGGLVQPGGSLRLSCAASGFTFSEYSMTWVRQAPGKGLEWVSSIVPYGDLTQYADSVKGRFTISRDNSKNTLYLQMNSLRAEDTAVYYCAKGPGWGSFDLWGRGTLVTVSS VL: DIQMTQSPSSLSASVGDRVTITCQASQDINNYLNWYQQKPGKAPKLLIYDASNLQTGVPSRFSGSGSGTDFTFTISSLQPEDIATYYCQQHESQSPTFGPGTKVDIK : decreased
